Tested on: U251 CNS
Test: NCI tumour cell line growth inhibition, 48 h
Listing of recorded TGI by entry.
Please give a number only; it is taken to be in µM.

N[C@H]1c2c(Br)sc(Br)c2C(=O)[C@H]1O	29.7

Query block: Field: TGI (U251 CNS). Entry: `Clc1ccc(CCNC2(c3cc4ccccc4s3)CCCCC2)cc1Cl`
Result block: 65.4

Query block: Same read-out for `COc1cc(OC)cc(Oc2cnc3cc(N)cc(N)c3n2)c1` ?
Result block: 28.8

====

System: SNB-75 CNS
Experiment: NCI tumour cell line growth inhibition, 48 h; in the data active = GI50 below about 0.43 µM; inactive = the rest
Allowed answers: T (active), F (inactive)

Query block: Per the records of this test, what outcome belongs to Oc1c(C(Nc2ccccn2)c2cccc(Oc3ccccc3)c2)ccc2cccnc12 (stereo not drawn) ?
Result block: F

Query block: Same read-out for `CN(C)C1CCN(Cc2ccc(NC(=O)c3cncc(C#Cc4cnc(N)c5ncccc45)c3)cc2C(F)(F)F)CC1` ?
Result block: F

Query block: Same read-out for `CN1CCN(C(=O)[C@@]2(C)CC[C@]3(C)CC[C@]4(C)C(=CC[C@@H]5[C@@]6(C)CCC(=O)NC(C)(C)[C@@H]6CC[C@]54C)[C@@H]3C2)CC1` ?
Result block: F

Query block: Same read-out for `COc1ccc(-c2cc(/C=C3\C(=O)Nc4cc(Cl)ccc43)[nH]n2)cc1` ?
Result block: F

Query block: Same read-out for `O=C(Cn1c(C(=O)c2ccc(Cl)cc2)nc(-c2ccc(Cl)cc2)c1-c1ccc(Cl)cc1)c1ccccc1` ?
Result block: F

Query block: Same read-out for `O=C(CCCn1c2c(sc3ccccc32)c(=O)n2nnc(-c3ccccc3)c12)NCCc1cnc[nH]1` ?
Result block: F

Query block: Same read-out for `CS(=O)(=O)N1CCC(n2c(=O)c(Oc3ccc(F)cc3F)cc3cnc(NC4CCOCC4)nc32)CC1` ?
Result block: F

Query block: Same read-out for `O=C1Nc2ccccc2/C1=C\c1c(-c2ccccc2)nc2sccn12` ?
Result block: F

Query block: Same read-out for COc1ccc2c(c1)N(Cc1ccc(Cl)cc1)CCC2N1CCCC1=O (stereo not drawn) ?
Result block: F

Query block: Same read-out for O=C(/C=C/C12c3ccccc3C(c3ccccc31)C1C(=O)N(c3ccc(Cl)cc3)C(=O)C12)c1ccccn1 (stereo not drawn) ?
Result block: T

Query block: Same read-out for `OCc1ccc(-c2csc(-c3ccc(CO)o3)c2)o1` ?
Result block: F

Query block: Same read-out for `Oc1cc(N2CC2)c(O)cc1N1CC1` ?
Result block: F

====

Listing of recorded TGI by entry.
Tested on: CAKI-1 renal
Test: NCI tumour cell line growth inhibition, 48 h
Please give a number only; it is taken to be in µM.

# annotated cases, reported TGI shown
Oc1cc(N2CC2)c(O)cc1N1CC1	0.332
O=C1CC(/C=C/c2ccco2)=C(O)C1=O	34.6
CC(c1cc(Cl)ccc1O)c1cc(Cl)ccc1O	16.4
Cn1c(-c2ccc[se]2)ccc1-c1ccc(C=O)[se]1	0.738
COC(=O)CNC(=O)C(Cc1ccccc1)NC(=O)c1ccc(-c2ccc(Cl)cc2Cl)o1 (configuration not stated)	77.6

Query block: # TGI lookup, item `COc1ccc2nc3c([N+](=O)[O-])ccc(NCCN(C)C)c3c(N)c2c1`
Result block: 3.42

====

Listing of recorded TGI by entry.
System: SF-295 CNS
Assay: NCI tumour cell line growth inhibition, 48 h
Please give a number only; it is taken to be in µM.

O=C1/C(=C/c2ccc(O)cc2)CCCC1CN1CCCCC1 (stereo not given)	29.9
COc1cc(OC)cc(Oc2cnc3cc(N)cc(N)c3n2)c1	32.7
CCCCCCC1N=C(N)N=C(N)N1c1cccc(Cl)c1 (stereo not given)	1.71
Cc1ccccc1NC(=O)Cc1csc(N/N=C2\NC(=O)/C(=C/c3cccc([N+](=O)[O-])c3)S2)n1	41.8
N[C@H]1c2c(Br)sc(Br)c2C(=O)[C@H]1O	51.1

Here is the next item to consider.
Query block: # TGI lookup, item `Nn1c(Nc2ccc(S(N)(=O)=O)cc2)nnc(/C=C/c2c(O)ccc3ccccc23)c1=O`
Result block: 96.8

====

Test system: SK-MEL-2 melanoma
Experiment: NCI tumour cell line growth inhibition, 48 h; in the data active = GI50 below about 0.43 µM; inactive = the rest
Allowed answers: active, inactive

CN1CCN(Cc2ccc(NC(=O)c3cncc(C#Cc4c(N)ncc5ccc(C#N)cc45)c3)cc2C(F)(F)F)CC1	inactive
CNC(=O)c1nn(C)c2c1C(C)(C)Cc1cnc(Nc3cccc(N4CCN(C)CC4)c3)nc1-2	active
CC(c1cc(Cl)ccc1O)c1cc(Cl)ccc1O	inactive
CNS(=O)(=O)OCC1OC(n2cnc3cncnc32)C(O)C1O (configuration not stated)	inactive
CC1(C)CC(=O)C=C(/C=C/Sc2c(Cl)c(Cl)nc(Cl)c2Cl)C1	inactive
O=C1/C(=C/c2ccc([N+](=O)[O-])s2)Oc2cc(Cl)ccc21	inactive

Now look at this entry.
Query block: Per the records of this test, what outcome belongs to `COc1cc(OC)cc(Oc2cnc3cc(N)cc(N)c3n2)c1` ?
Result block: inactive

====

System: MDA-MB-231 breast
Test: NCI tumour cell line growth inhibition, 48 h
parameter: TGI (µM)
Please give a number only; it is taken to be in µM.

# annotated cases, reported TGI shown
C/C(=N\Nc1nc2cc(Cl)ccc2s1)c1ccccn1	7.41
Cc1ccccc1NC(=O)Cc1csc(N/N=C2\NC(=O)/C(=C/c3cccc([N+](=O)[O-])c3)S2)n1	57.3
O=C(CCBr)N1CCN(C(=O)CCBr)CC1	242
CCOC(=O)c1c(NS(=O)(=O)c2ccc(C)cc2)sc2c1CCCC2	72.8
CCCCCCCCCCCCCC[n+]1ccccc1	2.52

Query block: # TGI lookup, item `CC(C)NC(=O)OCc1c(COC(=O)NC(C)C)c(-c2ccc[n+](COC(=O)Cc3ccccc3)c2)n2c1CCC2`
Result block: 74.7

Query block: Same read-out for `COc1ccc2nc3c([N+](=O)[O-])ccc(NCCN(C)C)c3c(N)c2c1` ?
Result block: 1.27

Query block: Same read-out for O=C(/C=C/C12c3ccccc3C(c3ccccc31)C1C(=O)N(c3ccc(Cl)cc3)C(=O)C12)c1ccccn1 (stereo unspecified) ?
Result block: 2.23

Query block: Same read-out for COC(=O)C12CCC(C)(C)CC1C1=CCC3C4(C)CC(O)C(O)C(C)(C(=O)OC)C4CCC3(C)C1(CO)CC2 (stereo unspecified) ?
Result block: 33.5

====

Test system: HL-60(TB) leukemia
Test: NCI tumour cell line growth inhibition, 48 h
parameter: log10 TGI (log10 of the value in µM)
Hi team, quick reminder: these entries are log10 of TGI (µM).

# annotated cases, reported log10 TGI shown
CN(C)C(=O)Oc1c(Br)cc(Br)cc1C(=O)OCc1ccccc1	1.70
O=C(c1ccccc1)N1CCN(C(=S)NC2CCCCC2)C1=S	1.70
Cn1c2ccc(F)cc2c2ccc3c(c21)C(=O)C=CC3=O	0.30
CC(=O)OCC12CN(C#N)C3C4COC(CC41)C1(C(=O)N(C)c4ccccc41)C32 (stereo not given)	1.49

Here is the next item to consider.
Query block: # log10 TGI lookup, item `CN1CCN(C(=O)[C@@]2(C)CC[C@]3(C)CC[C@]4(C)C(=CC[C@@H]5[C@@]6(C)CCC(=O)NC(C)(C)[C@@H]6CC[C@]54C)[C@@H]3C2)CC1`
Result block: 0.59

====

Tested on: P388/ADR leukemia
Experiment: NCI tumour cell line growth inhibition, 48 h
parameter: TGI (µM)
Please give a number only; it is taken to be in µM.

CN(C)C(=O)Oc1c(Br)cc(Br)cc1C(=O)OCc1ccccc1	41.6

Here is the next item to consider.
Query block: # TGI lookup, item `CN(C)CCNC(=O)c1cccc2ccc(-c3ccc(Br)cc3)nc12`
Result block: 4.44

====

Listing of recorded TGI by entry.
System: HCT-116 colon
Assay: NCI tumour cell line growth inhibition, 48 h
Please give a number only; it is taken to be in µM.

O=[N+]([O-])c1ccc(/C=C/c2nc3ccc(Cl)cc3[nH]2)cc1	37.6

Here is the next item to consider.
Query block: Field: TGI (HCT-116 colon). Entry: `O=C1CC(/C=C/c2ccco2)=C(O)C1=O`
Result block: 30.4

====

Test system: CAKI-1 renal
Experiment: NCI tumour cell line growth inhibition, 48 h
parameter: TGI

# annotated cases, reported TGI shown
Cc1ccccc1C1=C(c2cn(C)c3ccccc23)C(=O)NC1=O	> 25 µM
N#Cc1c(N)oc(-c2ccc([N+](=O)[O-])cc2)c1C#N	54.7 µM

Query block: # TGI lookup, item COc1ccc2c(c1)CC[C@@H]1C2CC[C@]2(C)C(=O)N(CCN(C)C)C(=O)CC12 (stereo partly specified)
Result block: > 100 µM

Query block: Same read-out for O=C(c1ccccc1)C(Cl)C(Cl)c1ccccc1 (stereo unspecified) ?
Result block: 8.18 µM

Query block: Same read-out for `Nn1c(Nc2ccc(S(N)(=O)=O)cc2)nnc(/C=C/c2c(O)ccc3ccccc23)c1=O` ?
Result block: 49.6 µM
